Overview of reported TGI across a group of molecules:
Test system: MDA-N
Experiment: NCI tumour cell line growth inhibition, 48 h

molecule | TGI
O=C(O)CC(C(=O)O)C1c2ccccc2-c2ccccc21 (stereo not given) | > 100 µM
CC(C)[C@](O)(C(=O)OCC1=CC[N+]2([O-])CC[C@@H](O)[C@@H]12)[C@H](C)O (stereo not given in full) | > 10000 µM
O=[N+]([O-])c1ccc(/C=N\Nc2ccc([N+](=O)[O-])cn2)cc1 | > 100 µM
CN(C)Cc1cc(C(=O)/C=C/c2ccc(Br)cc2)cc(CN(C)C)c1O | 9.81 µM
Nc1ccc(OCC(O)N2C(=O)c3ccccc3C2=O)cc1 (stereo not given) | > 100 µM
